Attribution: ChEMBL document CHEMBL3507680

Assay: Human HepG2 cell viability assay in 384 well format
Type: toxicity, cell-based
Design: dose 125 nL, time 70.5 hour; concentration not given beside the values
Settings: HepG2 cells, read-out: Inhibition
Measured cytotoxicity at 70.5 h of individual entries
Quick reminder: number only, in %, skip the unit.

// worked examples, cytotoxicity at 70.5 h included
molecule="CC(=O)N1Cc2ccccc2CC1C(=O)Nc1cc(C)ccn1 (configuration not stated)" assay_metric="cytotoxicity at 70.5 h" reported=-15.2
molecule=Cc1ccccc1-n1cc(C2=CCN(CCN3CCOCC3)CC2)cn1 assay_metric="cytotoxicity at 70.5 h" reported=12.8
molecule=CCN(CC)C1(Cc2cc(COC)on2)COC1 assay_metric="cytotoxicity at 70.5 h" reported=-0.489

Ask | Name the reported cytotoxicity at 70.5 h value associated with the molecule CCOCC(O)CN1CCN(C(=O)c2cccc(OC)c2)CC1 (configuration not stated)
Reply | -2.53

Ask | Field request: cytotoxicity at 70.5 h | item: "COc1ccc(N(c2ccc(OC)cc2)c2ccc(C(=O)O)s2)cc1"
Reply | -3.85

Ask | # query: cytotoxicity at 70.5 h of entry "CCOc1ccnc(N2CCN(C(=O)c3cc[nH]n3)CC2)n1"
Reply | -4.46

Ask | Which cytotoxicity at 70.5 h is listed for "CCN(CC1CCOCC1)C(=O)Cn1ccccc1=O" ?
Reply | -9.29

====

Assay: Human HepG2 cell viability assay in 384 well format
Type: toxicity, cell-based
Parameters: dose 125 nL, time 70.5 hour; concentration not given beside the values
Details: HepG2 cells, read-out: Inhibition
assay_metric: cytotoxicity at 70.5 h (%)
// return numeric value only (unit: %, not printed)

Before answering, review these 3 worked examples.
compound=COc1cc2nc(C)n(CC(=O)NCCO)c(=O)c2cc1OC reported=-8.13
compound="Cc1ccnc(C2(C)CCCN2S(=O)(=O)c2ccccc2)n1 (centres undefined)" reported=16.3
compound="Cc1nn(C)c(Cl)c1C1CCCN1C(=O)c1ccc2c(c1)COC2 (centres undefined)" reported=-0.781

Ask | Look up cytotoxicity at 70.5 h for this compound: "Cc1ccc(-c2nnc(CN3CCNC(=O)C3)o2)cc1"
Reply | -4.25

Ask | Could you tell me which cytotoxicity at 70.5 h is on file for Cc1nn(CC(O)CN2CCc3ccccc3C2)c(=O)c(C#N)c1C (centres undefined) ?
Reply | -19.9

Ask | What does the data say about its cytotoxicity at 70.5 h? Entry: N#Cc1cccc(N2CCCC(CO)(Cc3ccccc3F)C2)n1 (centres undefined)
Reply | 20.1

Ask | For the compound "Cc1nc[nH]c1CN1C[C@@H]2CC[C@H](C1)N(C(=O)CCc1cccnc1)C2" , what cytotoxicity at 70.5 h is on record?
Reply | -11.7

Ask | Which value of cytotoxicity at 70.5 h has been reported for "O=C1C[C@H]2CC[C@@H](CN1)N2C(=O)CCCc1ccc(Cl)cc1" in the records?
Reply | -7.24

Ask | Form field: reported cytotoxicity at 70.5 h of "c1cncc(-c2c[nH]c([C@@H]3COCCN3Cc3ccncc3)n2)c1"
Reply | 1.27

Ask | Give the measured cytotoxicity at 70.5 h of COCC1CN(S(=O)(=O)c2ccc(C)cc2)Cc2c1cnn2C (centres undefined) .
Reply | 7.58

====

cytotoxicity at 70.5 h overview
Assay: Human HepG2 cell viability assay in 384 well format
Format: toxicity, cell-based
Design: dose 125 nL, time 70.5 hour; concentration not given beside the values
Conditions: HepG2 cells, read-out: Inhibition
Return type: number; implicit unit %.

Ask | // cytotoxicity at 70.5 h lookup, key: "O=C(C1CCC1)N1CCC2(CCNCC2)C1"
Reply | 13.3

====

Experiment: Human HepG2 cell viability assay in 384 well format
Assay type: toxicity, cell-based
Parameters: dose 125 nL, time 70.5 hour; concentration not given beside the values
Conditions: HepG2 cells, read-out: Inhibition
assay_metric: cytotoxicity at 70.5 h (%)
Write the value in % as a bare number.

molecule=Cc1[nH]c2c(C)ccc(C)c2c1CC(=O)NCCNc1cccnc1 assay_metric="cytotoxicity at 70.5 h" reported=27

Ask | Would you kindly share the measured cytotoxicity at 70.5 h for CCc1cnc(C)nc1NC1CC(=O)N(CC)C1 (configuration not stated) ?
Reply | -7.16

Ask | cytotoxicity at 70.5 h lookup needed for "O=C(CCNS(=O)(=O)c1ccc2c(c1)CCCC2)NCc1ccoc1" , thanks.
Reply | -11.5

====

Test: Human HepG2 cell viability assay in 384 well format
Format: toxicity, cell-based
Design: dose 125 nL, time 70.5 hour; concentration not given beside the values
Details: HepG2 cells, read-out: Inhibition
assay_metric: cytotoxicity at 70.5 h
In your response, the unit should come after the numeric value.

Ask | What value of cytotoxicity at 70.5 h has been recorded for this entry: "CN(C)CCN1C(=O)CC[C@@H]2[C@H]1CCN2C(=O)c1ccc(C#N)cc1"
Reply | -7.83%

Ask | Any idea what its cytotoxicity at 70.5 h is? The compound is Cc1ccccc1C1CCN(CCn2cc(-c3nccn3C)nn2)C1 (centres undefined)
Reply | 2.36%

Ask | Give the measured cytotoxicity at 70.5 h of "CC(C)Cn1ncc(C(=O)NS(=O)(=O)c2ccccc2)c1C1CC1" .
Reply | -8.45%

Ask | Field request: cytotoxicity at 70.5 h | item: "CC(C)c1nc(CN(C)Cc2cnc(N3CCOCC3)nc2)no1"
Reply | -6.44%

Ask | If you can, please state the reported cytotoxicity at 70.5 h value of CN(C)S(=O)(=O)N1CCC2(COCc3cnc(-c4ccccc4)nc32)C1 (centres undefined) .
Reply | -23.1%

Ask | Give its cytotoxicity at 70.5 h value. Item: "Cc1ncc(C(=O)N2CC(C(=O)N3CCCCCC3)C2)c(C)n1"
Reply | -4.02%

====

Assay: Human HepG2 cell viability assay in 384 well format
Assay type: toxicity, cell-based
Design: dose 125 nL, time 70.5 hour; concentration not given beside the values
Settings: HepG2 cells, read-out: Inhibition
A collection of compounds and their measured cytotoxicity at 70.5 h
State the answer as a number, implicitly in %.

compound="CCC(=O)c1ccc(OCC(=O)NC(C)c2nnn[nH]2)cc1 (stereo not given)" assay_metric="cytotoxicity at 70.5 h" output_unit=% reported=-0.478

Ask | # input compound: O=C(c1csc(-c2cnccn2)n1)N1CCCC1Cn1cccn1 (stereo not given) ; wanted: its cytotoxicity at 70.5 h
Reply | 2.23

Ask | Quick check: cytotoxicity at 70.5 h of O=C(c1ccno1)N1CCCC(c2ncncc2-c2ccncc2)C1 (stereo not given) ?
Reply | -9.77

Ask | Which cytotoxicity at 70.5 h is listed for Cc1n[nH]cc1C(=O)N1CCCC(c2cccc(-n3ccnc3)n2)C1 (stereo not given) ?
Reply | -7.73

Ask | Look up cytotoxicity at 70.5 h for this compound: "Cc1oncc1C(=O)N[C@@H]1CN(CC2CC2)C[C@@H]2CCCO[C@@H]21"
Reply | -10.1

====

Each entry below carries its recorded cytotoxicity at 70.5 h.
Assay: Human HepG2 cell viability assay in 384 well format
Assay type: toxicity, cell-based
Design: dose 125 nL, time 70.5 hour; concentration not given beside the values
Settings: HepG2 cells, read-out: Inhibition
The answer is to be given in %; state only the numeric part.

molecule="COc1ccccc1Oc1ncccc1CNC(=O)C(C)CN (configuration not stated)" output_unit=% reported=-9.25
molecule="Cc1noc(C)c1-c1cccc(CC2CCN(C(=O)c3cc[nH]n3)C2)n1 (configuration not stated)" output_unit=% reported=-18
molecule=O=C(Nc1ccc(Cl)cc1C(=O)NCCN1CCOCC1)c1ccco1 output_unit=% reported=-0.882
molecule=O=C(NCc1csc(-c2cnccn2)n1)c1cnn2c1CCCC2 output_unit=% reported=-5.37
molecule="CS(=O)(=O)N1CCC(c2nnc3ccc(C(=O)N4CCCC4)cn23)C1 (configuration not stated)" output_unit=% reported=-5.09

Ask | What does the record list as cytotoxicity at 70.5 h for "O=C1COC2(CCN(CC3CC3)CC2)CN1c1cncnc1" ?
Reply | -13.3

Ask | Would you kindly share the measured cytotoxicity at 70.5 h for "O=C(c1ccc(Cl)cc1)N1CCC(N2CCCCC2=O)CC1" ?
Reply | -7.46

====

Assay: Human HepG2 cell viability assay in 384 well format
Assay type: toxicity, cell-based
Set-up: dose 125 nL, time 70.5 hour; concentration not given beside the values
Conditions: HepG2 cells, read-out: Inhibition
assay_metric: cytotoxicity at 70.5 h (%)
Numbers only; they are read as %.

Recorded cytotoxicity at 70.5 h, per entry:
compound=Cc1csc([C@H]2C[C@H]3CN(Cc4cc(C)on4)CC[C@@H]3O2)n1 output_unit=% reported=-7.64
compound=Fc1ccc(F)c(CN2CCC(c3cnccn3)CC2)c1 output_unit=% reported=-5.3

Ask | Fill blank: measured cytotoxicity at 70.5 h of the compound "c1ncn(Cc2cnc3n2CCN(Cc2ccsc2)CC3)n1" is ____.
Reply | 1.42
